Listed here: items and their measured Km.
# Substrate: CC(=O)C=O
# ASSAY PROCEDURE: Methylglyoxal reductase kinetic parameters of purified enzyme (NAD(P)H consumption at 340 nm)
# Type: biochemical, Escherichia coli
# CONDITION LABEL: other: substrate methylglyoxal 0.1-40 mM, cofactor NADPH, 20mM Hepes (pH7.5), 30°C, pH 7.5
Quick reminder: number only, in mM, skip the unit.

[Q] I'd like to know its Km. The protein in question is Escherichia coli YahK (aldehyde reductase, Uniprot P75691), SEQ ID NO: 1 (Escherichia coli K-12) (protein) MKIKAVGAYSAKQPLEPMDITRREPGPNDVKIEIAYCGVCHSDLHQVRSEWAGTVYPCVPGHEIVGRVVAVGDQVEKYAPGDLVGVGCIVDSCKHCEECEDGLENYCDHMTGTYNSPTPDEPGHTLGGYSQQIVVHERYVLRIRHPQEQLAAVAPLLCAGITTYSPLRHWQAGPGKKVGVVGIGGLGHMGIKLAHAMGAHVVAFTTSEAKREAAKALGADEVVNSRNADEMAAHLKSFDFILNTVAAPHNLDDFTTLLKRDGTMTLVGAPATPHKSPEVFNLIMKRRAIAGSMIGGIPETQEMLDFCAEHGIVADIEMIRADQINEAYERMLRGDVKYRFVIDNRTLTD
[A] 1.41

[Q] Param item = Escherichia coli YdhF (Oxidoreductase YdhF, Uniprot P76187), SEQ ID NO: 105 (Escherichia coli K-12) (protein) MVQRITIAPQGPEFSRFVMGYWRLMDWNMSARQLVSFIEEHLDLGVTTVDHADIYGGYQCEAAFGEALKLAPHLRERMEIVSKCGIATTAREENVIGHYITDRDHIIKSAEQSLINLATDHLDLLLIHRPDPLMDADEVADAFKHLHQSGKVRHFGVSNFTPAQFALLQSRLPFTLATNQVEISPVHQPLLLDGTLDQLQQLRVRPMAWSCLGGGRLFNDDYFQPLRDELAVVAEELNAGSIEQVVYAWVLRLPSQPLPIIGSGKIERVRAAVEAETLKMTRQQWFRIRKAALGYDVP ; retrieve measured Km.
[A] 21.8

[Q] Record request: Km value, item Escherichia coli YeaE (Uncharacterized protein YeaE, Uniprot P76234), SEQ ID NO: 107 (Escherichia coli K-12) (protein) MQQKMIQFSGDVSLPAVGQGTWYMGEDASQRKTEVAALRAGIELGLTLIDTAEMYADGGAEKVVGEALTGLREKVFLVSKVYPWNAGGQKAINACEASLRRLNTDYLDLYLLHWSGSFAFEETVAAMEKLIAQGKIRRWGVSNLDYADMQELWQLPGGNQCATNQVLYHLGSRGIEYDLLPWCQQQQMPVMAYSPLAQAGRLRNGLLKNAVVNEIAHAHNISAAQVLLAWVISHQGVMAIPKAATIAHVQQNAAVLEVELSSAELAMLDKAYPAPKGKTALDMV
[A] 1.59
